The measurements presented in this section are drawn from patent US11524938B2.

target: UniProtKB Q99571; test: Human P2X4 HEK Cell FLIPR Assay; conditions: HEK293 cells, agonist Bz-ATP at EC80; individual values listed where some fall outside detection range
Entries whose IC50 is below 200 nM take Criterion met; entries at or above 200 nM take Criterion not met.

Query block: Does "NS(=O)(=O)c1c(-n2cc(C(F)(F)F)cn2)ccc(NC(=O)Cc2ccccc2Cl)c1C(F)(F)F" have IC50 strictly under 200 nM?
Result block: Criterion not met

Query block: Does "N#Cc1cnn(-c2ccc(NC(=O)Cc3c(F)ccc(F)c3Cl)cc2S(N)(=O)=O)c1" have IC50 strictly under 200 nM?
Result block: Criterion met

Query block: Does "CCOc1ccccc1CC(=O)Nc1ccc(-n2cc(F)cn2)c(S(N)(=O)=O)c1" have IC50 strictly under 200 nM?
Result block: Criterion not met

Query block: Does "Cc1nc(C(F)(F)F)nn1-c1ccc(NC(=O)Cc2ccccc2Cl)cc1S(N)(=O)=O" have IC50 strictly under 200 nM?
Result block: Criterion not met

Query block: Does "NS(=O)(=O)c1cc(NC(=O)Cc2ccccc2C(F)F)ccc1-n1cc(Cl)cn1" have IC50 strictly under 200 nM?
Result block: Criterion met

Query block: Does "NS(=O)(=O)c1cc(NC(=O)Cc2cc(Cl)ccc2Cl)ccc1-n1cc(C(F)(F)F)cn1" have IC50 strictly under 200 nM?
Result block: Criterion not met

Query block: Does "NS(=O)(=O)c1cc(NC(=O)Cc2ccccc2[N+](=O)[O-])ccc1-n1cc(Cl)cn1" have IC50 strictly under 200 nM?
Result block: Criterion not met

Query block: Does "NS(=O)(=O)c1cc(NC(=O)Cc2ccccc2Cl)cc(Cl)c1-n1cc(C(F)(F)F)cn1" have IC50 strictly under 200 nM?
Result block: Criterion not met

###

Target: human P2X4 (Homo sapiens)
Sequence (Q99571 1-388): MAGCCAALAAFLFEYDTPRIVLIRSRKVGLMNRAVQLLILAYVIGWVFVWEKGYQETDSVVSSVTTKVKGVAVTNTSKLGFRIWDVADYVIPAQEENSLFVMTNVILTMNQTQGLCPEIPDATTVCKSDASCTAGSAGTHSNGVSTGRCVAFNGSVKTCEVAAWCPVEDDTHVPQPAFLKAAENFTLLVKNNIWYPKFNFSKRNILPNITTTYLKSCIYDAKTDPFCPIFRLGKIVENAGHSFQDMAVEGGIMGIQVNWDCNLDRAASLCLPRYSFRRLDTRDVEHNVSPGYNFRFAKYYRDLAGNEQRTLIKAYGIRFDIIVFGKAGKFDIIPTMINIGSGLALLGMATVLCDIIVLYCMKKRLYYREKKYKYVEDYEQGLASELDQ
Assay: Human P2X4 HEK Cell FLIPR Assay
Format: cell-based
Conditions: HEK293, HEK293 cells, agonist Bz-ATP at EC80; percentage of maximal inhibition; read-out: Human P2X4 HEK Cells (FLIPR Assay) avg Efficacy [%]
Experimental: HEK293 cells stably expressing human P2X4 were plated in poly-D-lysine-coated 384-well plates at a seeding density of 30000 cells/well and incubated overnight. P2X4 function was assessed by measuring intracellular calcium changes using the calcium-chelating dye Fluo8-AM (Molecular Devices) on a fluorescent imaging plate reader (FLEX/FLIPR station; Molecular Devices). […] The EC80 value of Bz-ATP was determined each assay day prior to compound profiling. […]
I'd appreciate it if you could supply Emax values for the items below.

Query block: # get_value(readout='Emax', item= "NS(=O)(=O)c1cc(NC(=O)Cc2ccccc2F)ccc1-n1cc(C(F)(F)F)nn1" )
Result block: 89%

Query block: # get_value(readout='Emax', item= "NS(=O)(=O)c1cc(NC(=O)Cc2ccccc2Cl)ccc1-n1ccc(C2CC2)n1" )
Result block: 88%

Query block: # get_value(readout='Emax', item= "Cc1ncn(-c2ccc(NC(=O)Cc3ccccc3Cl)cc2S(N)(=O)=O)n1" )
Result block: 91%

Query block: # get_value(readout='Emax', item= "NS(=O)(=O)c1cc(NC(=O)Cc2ccccc2Cl)ccc1-c1cncc(C(=O)N2CCCC2)c1" )
Result block: 97%

Query block: # get_value(readout='Emax', item= NS(=O)(=O)c1cc(NC(=O)C(O)c2ccccc2Cl)ccc1-c1cnn(C2CC2)c1 (centres unmarked) )
Result block: 81%

Query block: # get_value(readout='Emax', item= "NS(=O)(=O)c1cc(NC(=O)Cc2ccccc2Cl)ccc1-n1cc(C(F)F)cn1" )
Result block: 87%

Query block: # get_value(readout='Emax', item= "NS(=O)(=O)c1cc(NC(=O)Cc2ccccc2Cl)ccc1-n1cncn1" )
Result block: 89%

Query block: # get_value(readout='Emax', item= "NS(=O)(=O)c1cc(NC(=O)Cc2ccccc2F)ccc1-c1cncc(F)c1" )
Result block: 78%

Query block: # get_value(readout='Emax', item= "N#Cc1cn(-c2ccc(NC(=O)Cc3ccccc3Cl)cc2S(N)(=O)=O)nc1O" )
Result block: 40%

Query block: # get_value(readout='Emax', item= "COc1ccccc1CC(=O)Nc1ccc(-n2cc(Cl)cn2)c(S(N)(=O)=O)c1" )
Result block: 87%

Query block: # get_value(readout='Emax', item= "CN(C(=O)Cc1ccccc1Cl)c1ccc(-n2cc(C(F)(F)F)cn2)c(S(N)(=O)=O)c1" )
Result block: 93%

Query block: # get_value(readout='Emax', item= "NS(=O)(=O)c1cc(NC(=O)Cc2ccc(F)cc2)ccc1-n1cc(Cl)cn1" )
Result block: 29%

Query block: # get_value(readout='Emax', item= "NS(=O)(=O)c1cc(NC(=O)Cc2ccccc2Cl)ccc1-n1cnc(C2CC2)c1" )
Result block: 82%

Query block: # get_value(readout='Emax', item= "COc1ccccc1CC(=O)Nc1ccc(-n2cc(C(F)(F)F)cn2)c(S(N)(=O)=O)c1" )
Result block: 62%

Query block: # get_value(readout='Emax', item= "Cc1nnc(-c2ccc(NC(=O)Cc3ccccc3Cl)cc2S(N)(=O)=O)o1" )
Result block: 87%

Query block: # get_value(readout='Emax', item= "N#Cc1cnn(-c2ccc(NC(=O)Cc3ccc(O)cc3)cc2S(N)(=O)=O)c1" )
Result block: 84%

Query block: # get_value(readout='Emax', item= "COc1ccc(CC(=O)Nc2ccc(-c3cncc(C(F)(F)F)c3)c(S(N)(=O)=O)c2)c(F)c1" )
Result block: 70%

###

target: human P2X4 (Homo sapiens, UniProt Q99571); assay: Human P2X4 HEK Cell FLIPR Assay; details: HEK293 cells, agonist Bz-ATP at EC80; individual values listed where some fall outside detection range
I'd appreciate it if you could supply IC50 values for the items below.
Number in nM, nothing else.

Query block: # get_value(readout='IC50', item= "CCOc1ncc(-c2ccc(NC(=O)Cc3ccccc3Cl)cc2S(N)(=O)=O)cn1" )
Result block: 317

Query block: # get_value(readout='IC50', item= "NS(=O)(=O)c1cc(NC(=O)Cc2ccccc2OC(F)F)ccc1-n1cc(Cl)cn1" )
Result block: 169

Query block: # get_value(readout='IC50', item= "NS(=O)(=O)c1cc(NC(=O)Cc2cccc(C(F)(F)F)c2Cl)ccc1-n1cc(C(F)(F)F)cn1" )
Result block: 155

Query block: # get_value(readout='IC50', item= "NS(=O)(=O)c1cc(NC(=O)Cc2ccccc2Cl)ccc1-n1cnc2cccnc21" )
Result block: 210

###

target: human P2X4 (Homo sapiens); assay: Human P2X4 HEK Cell FLIPR Assay; details: HEK293 cells, agonist Bz-ATP at EC80; individual values listed where some fall outside detection range
reported.endpoint: pIC50
pIC50 here: minus log base 10 of the concentration, concentration in moles per litre.

Query block: # get_value(readout='pIC50', item= "NS(=O)(=O)c1cc(NC(=O)Cc2ccccc2OC(F)(F)F)ccc1-n1cc(Br)cn1" )
Result block: 6.93

Query block: # get_value(readout='pIC50', item= CC(C(=O)Nc1cnn(-c2ccc(NC(=O)Cc3ccccc3Cl)cc2S(N)(=O)=O)c1)C(F)(F)F (single isomer, unassigned) [Example 510] )
Result block: 6.36

Query block: # get_value(readout='pIC50', item= "NS(=O)(=O)c1cc(NC(=O)Cc2ccccc2Cl)ccc1-c1cncs1" )
Result block: 7.82

Query block: # get_value(readout='pIC50', item= "COCCn1cc(-c2ccc(NC(=O)Cc3ccc(F)cc3Cl)cc2S(N)(=O)=O)cn1" )
Result block: 6.73

Query block: # get_value(readout='pIC50', item= "Cc1ccc(F)c(CC(=O)Nc2ccc(-n3cc(C(F)(F)F)cn3)c(S(N)(=O)=O)c2)c1Cl" )
Result block: 7.10

Query block: # get_value(readout='pIC50', item= "N#Cc1cnn(-c2ccc(NC(=O)Cc3ccccc3OC(F)F)cc2S(N)(=O)=O)c1" )
Result block: 7.00

Query block: # get_value(readout='pIC50', item= "Cc1nc(Cl)ncc1-c1ccc(NC(=O)Cc2ccccc2Cl)cc1S(N)(=O)=O" )
Result block: 5.92
